Assay: Half life in rat at 1 mg/kg, iv
Assay type: ADME, organism-based
Details: in vivo
observation_type: half-life (min)
Express the result in min but write the number alone.

Request: Read the entry C[C@]1(O)CCN(c2nc(N3C[C@H](O)[C@@H](O)C3)cc(C(F)(F)F)c2C#N)C1 and write its reported half-life.
Result: 72

---

Assay: Apparent permeability in RRCK cells by LC-MS/MS analysis
Assay type: ADME, cell-based, Canis lupus familiaris, MDCKII-LE
Settings: dog, MDCK
observation_type: Papp
Include the unit right after the number.

structure: C[C@]1(O)CCN(c2c(C#N)c(C(F)(F)F)nc3cc[nH]c23)C1
observed_result: 14 ×10⁻⁶ cm/s

Now examine the next entry.
Request: Answer with the recorded Papp for the molecule listed here: C[C@]1(O)CCN(c2nc(N3C[C@H](O)[C@@H](O)C3)cc(C(F)(F)F)c2C#N)C1
Result: 3.5 ×10⁻⁶ cm/s

Hello, the source for this data is ChEMBL document CHEMBL4017511, in case you need it.
